# Tested on: EH: Enterococcus hirae ATCC 10541
# protocol description: Antimicrobial activity by the agar dilution method (MIC)
# Type: cell-based
# condition: pH 7
test readout: minimum inhibitory concentration (MIC), EH (µg/mL)

{"columns": ["molecule", "target", "measurement unit", "experimental value"],
 "data": [
  ["C/C1=C\\C(O)C(=O)/C=C/C=C\\c2csc(n2)C(C)N2C(=O)CC(C(C)(O)C(=O)SCOC(=O)CCc3ccc(O)cc3)(CC1)[S+]2[O-] (centres unmarked)", "EH: Enterococcus hirae ATCC 10541", "µg/mL", 0.91],
  ["C/C1=C\\C(OC2CCCCO2)C(=O)/C=C/C=C\\c2csc(n2)C(C)N2C(=O)CC(C(C)(O)C(=O)SCc3oc(=O)oc3COC3C[C@@H](O)[C@H](O)[C@@H](CO)O3)(CC1)[S+]2[O-] (some centres unmarked)", "EH: Enterococcus hirae ATCC 10541", "µg/mL", 0.59],
  ["COCCOCCOCC(=O)OCSC(=O)C(C)(O)C12CCC(C)=CC(O)C(=O)C=CC=Cc3csc(n3)C(C)N(C(=O)C1)[S+]2[O-] (centres unmarked)", "EH: Enterococcus hirae ATCC 10541", "µg/mL", 0.39],
  ["COC(=O)[C@H](CCC(=O)OCSC(=O)C(C)(O)C12CC/C(C)=C/C(O)C(=O)/C=C/C=C\\c3csc(n3)C(C)N(C(=O)C1)[S+]2[O-])NC(=O)C1CCC(=O)N1 (some centres unmarked)", "EH: Enterococcus hirae ATCC 10541", "µg/mL", 0.29],
  ["COC(=O)NCC(=O)OCOC1C=C(C)CCC2(C(C)(O)C(=O)SCOC(=O)CNC(=O)OC)CC(=O)N(C(C)c3nc(cs3)C=CC=CC1=O)[S+]2[O-] (centres unmarked)", "EH: Enterococcus hirae ATCC 10541", "µg/mL", 5.7]
]}
